Biological target: Anti-CD28 Fab (SEQ ID NOs: 202, 203)
Sequence (VH, as listed by the source, chain 1 of 2): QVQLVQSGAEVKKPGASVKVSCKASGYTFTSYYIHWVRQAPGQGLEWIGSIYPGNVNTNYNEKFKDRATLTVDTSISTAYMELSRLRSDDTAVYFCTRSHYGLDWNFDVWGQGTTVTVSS
Sequence (VL, as listed by the source, chain 2 of 2): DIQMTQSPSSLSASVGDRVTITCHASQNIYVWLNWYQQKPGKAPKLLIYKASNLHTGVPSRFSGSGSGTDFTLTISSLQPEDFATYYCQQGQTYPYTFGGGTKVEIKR
Test: phage binding ELISA on captured Fab; competitor CD28 antigen;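 note: wells pretreated with CD28 antigen in blocking buffer or buffer only, then clonal phage supernatants added briefly without washing, bound phage detected via horseradish-conjugated anti-M13 antibody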
Measured Parameter: Anti-CD28 Fab signal in the presence of CD28
Keep it simple and answer with nothing but the number.

These recorded examples may help you get a feel for the data.
In [3]: df
Out[3]:
                      binder  reported_value
0  YCAGHLPQYMAKCL [Phage-55]            0.17
1  YCAGHAPEYMEKCL [Phage-48]            0.09
2  YCEGHRPEYILKCL [Phage-26]            0.06
3  YCAGHMPEYMAKCL [Phage-65]            0.11
4  YCEGHAPEYIGKCL [Phage-44]            0.07
5  YCEGHSQEYLWKCL [Phage-36]            0.07
6  YCDGHLPEYMEKCL [Phage-50]             0.1
7  HCSGHHWLQVWKCF [Phage-38]            0.07

Q: Can you look up the measured Anti-CD28 Fab signal in the presence of CD28 of YCEGHSEEYISKCL [Phage-99] for me?
Ans: 0.08
